System under test: human recombinant FAAH (Homo sapiens, UniProt O00519)
Sequence (O00519 whole entry): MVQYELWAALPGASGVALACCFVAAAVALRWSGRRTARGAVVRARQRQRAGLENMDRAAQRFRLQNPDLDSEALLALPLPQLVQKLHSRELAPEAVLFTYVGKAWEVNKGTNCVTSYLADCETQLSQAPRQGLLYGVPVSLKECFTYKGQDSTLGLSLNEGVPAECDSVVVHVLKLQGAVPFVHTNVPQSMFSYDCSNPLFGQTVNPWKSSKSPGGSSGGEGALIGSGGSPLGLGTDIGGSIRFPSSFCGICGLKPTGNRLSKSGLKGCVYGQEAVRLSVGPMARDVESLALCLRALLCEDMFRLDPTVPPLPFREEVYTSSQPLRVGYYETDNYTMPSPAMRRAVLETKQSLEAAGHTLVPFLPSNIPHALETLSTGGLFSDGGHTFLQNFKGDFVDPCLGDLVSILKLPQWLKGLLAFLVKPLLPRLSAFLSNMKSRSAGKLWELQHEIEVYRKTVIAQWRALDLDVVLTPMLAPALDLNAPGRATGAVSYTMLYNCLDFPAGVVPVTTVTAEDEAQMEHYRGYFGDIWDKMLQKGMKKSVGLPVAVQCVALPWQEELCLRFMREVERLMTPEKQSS
Assay: FAAH inhibition enzymatic assay, fluorescent substrate Arachidonoyl-AMC, 30 minute incubation
Details: T = 30 min (30 minute incubation); geometric mean of 2-4 determinations unless otherwise indicated
Listing: IC50 of selected molecules
Answer in µM, number only, no unit symbol.

{"Molecule": "COc1ccc(C2COC3(CCN(C(=O)O[C@H](CO)C(F)(F)F)CC3)C2)nc1 (mixture of isomers) [Example 121]", "Units of measure": "µM", "IC50": 14.7}

Next molecule, please.
Fill blank: measured IC50 of the molecule CC(C)c1cccc(S(=O)(=O)N2CCOC3(CCN(C(=O)O[C@H](CO)C(F)(F)F)CC3)C2)c1 [Example 66] is ____.
7.87

====

System under test: human recombinant Monoacylglycerol Lipase (Homo sapiens)
Assay: MAGL inactivation, enzyme progress curves, kinact/KI
Assay type: biochemical
Details: from enzyme progress curves, T = 0 min protocol; geometric mean of 2-4 determinations unless otherwise indicated
Listing: MAGL kinact/KI of selected compounds

Examples with answers:
{"Compound": "O=C(O[C@H](CO)C(F)(F)F)N1C[C@@H]2[C@H](C1)[C@H]2c1ccn(-c2ccc(F)cc2)n1", "MAGL kinact/KI": "20005 1/s per M"}
{"Compound": "O=C(OC(C(F)(F)F)C(F)(F)CO)N1C[C@@H]2[C@H](C1)[C@H]2c1ccn(-c2ccc(F)cc2)n1 (stereo partly shown)", "MAGL kinact/KI": "9893 1/s per M"}
{"Compound": "Cc1ccc(S(=O)(=O)N2CCOC3(CCN(C(=O)O[C@H](CO)C(F)(F)F)CC3)C2)cc1Cl", "MAGL kinact/KI": "59048 1/s per M"}
{"Compound": "O=C(O[C@H](CO)C(F)(F)F)N1CCC2(CC1)CN(S(=O)(=O)c1ccc(F)c(Cl)c1)CCO2", "MAGL kinact/KI": "19870 1/s per M"}
{"Compound": "O=C(O[C@H](CO)C(F)(F)F)N1CCC2(CC1)CC(c1ccccc1)CO2 (single isomer, unassigned) [Example 96]", "MAGL kinact/KI": "18560 1/s per M"}

Fill blank: measured MAGL kinact/KI of the compound O=C(O[C@H](CO)C(F)(F)F)N1CCC(Oc2ncc(C(F)(F)F)cc2Cl)CC1 is ____.
7347 1/s per M

Fill blank: measured MAGL kinact/KI of the compound O=C(O[C@H](CO)C(F)(F)F)N1CCC2(CC1)CCN(C(=O)N1CCCC1)C2 is ____.
3614 1/s per M

====

Assay: Prodrug in vivo pharmacokinetics in dogs after intravenous administration (LC-MS-MS of prodrug and parent)
Details: beagle, dog, in vivo, iv, 0.7 mg/kg, CL, Example 31 in plasma, IV Example 31 at 0.7 mg/kg, Dog 01
Test readout: clearance (mL/min/kg)
Answer in mL/min/kg, number only, no unit symbol.

Fill blank: measured clearance of the compound O=C(O[C@H](COP(=O)([O-])[O-])C(F)(F)F)N1CCC2(CC1)C[C@@H](NS(=O)(=O)c1ccccc1)CO2.[Na+].[Na+] is ____.
108

====

System under test: human recombinant Monoacylglycerol Lipase (Homo sapiens, UniProt Q99685)
Assay: MAGL inhibition enzymatic assay, fluorogenic substrate 7-HCA, IC50 at T=0 min or after 30 minute incubation (T=30 min)
Assay type: biochemical
Details: T = 0 min (substrate added immediately); geometric mean of 2-4 determinations unless otherwise indicated; read-out: MAGL (T = 0 min) IC50
Test readout: pIC50
pIC50 is defined as minus the log10 of a concentration measured in mol/L.

Examples with answers:
{"Molecule": "O=C(O[C@H](CO)C(F)(F)F)N1CCC2(CC1)C[C@H](NS(=O)(=O)c1ccccc1)CO2", "pIC50": 7.24}
{"Molecule": "O=C(O[C@H](CO)C(F)(F)F)N1CCC2(CC1)CN(CC1CCCOC1)CCO2 (single isomer, unassigned) [Example 4]", "pIC50": 6.78}
{"Molecule": "O=C(O[C@H](CO)C(F)(F)F)N1CCC2(CC1)CC(c1ccc(F)nc1)CO2 (mixture of isomers)", "pIC50": 6.78}

Fill blank: measured pIC50 of the molecule C#Cc1cccc(S(=O)(=O)N2CCOC3(CCN(C(=O)O[C@H](CO)C(F)(F)F)CC3)C2)c1 is ____.
8.15

Fill blank: measured pIC50 of the molecule C#Cc1ccc(-n2ccc([C@H]3[C@@H]4CN(C(=O)O[C@H](CO)C(F)(F)F)C[C@@H]43)n2)cc1 is ____.
8.10

Fill blank: measured pIC50 of the molecule O=C(OC(CO)C(F)(F)F)N1CCC(c2ccn(C3CCOCC3)n2)CC1 (centres unmarked) is ____.
5.83

Fill blank: measured pIC50 of the molecule CN(C(=O)c1cccc(F)c1)[C@H]1COC2(CCN(C(=O)O[C@H](CO)C(F)(F)F)CC2)C1 is ____.
7.11

Fill blank: measured pIC50 of the molecule Cc1ccc(OC2CCN(C(=O)O[C@H](CO)C(F)(F)F)CC2)nc1 is ____.
6.90

Fill blank: measured pIC50 of the molecule Cc1ccc(CC2COC3(CCN(C(=O)O[C@H](CO)C(F)(F)F)CC3)C2)nc1 (mixture of isomers) is ____.
6.67

Fill blank: measured pIC50 of the molecule O=C(O[C@H](CO)C(F)(F)F)N1CCC2(CC1)CC(N1Cc3ccccc3S1(=O)=O)CO2 (mixture of isomers) is ____.
6.74

====

System under test: human recombinant Monoacylglycerol Lipase (Homo sapiens)
Sequence (Q99685 1-303): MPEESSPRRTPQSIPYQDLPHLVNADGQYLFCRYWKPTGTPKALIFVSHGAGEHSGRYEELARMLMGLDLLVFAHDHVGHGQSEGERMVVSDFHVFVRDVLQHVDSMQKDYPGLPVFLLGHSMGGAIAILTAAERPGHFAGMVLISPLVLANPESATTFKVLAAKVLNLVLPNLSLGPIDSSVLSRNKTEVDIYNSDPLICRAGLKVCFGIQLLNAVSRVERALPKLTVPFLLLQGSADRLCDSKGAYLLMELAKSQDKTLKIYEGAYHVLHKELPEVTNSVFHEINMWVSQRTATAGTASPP
Assay: MAGL inactivation, enzyme progress curves, kinact/KI
Type: biochemical
Details: from enzyme progress curves, T = 0 min protocol; geometric mean of 2-4 determinations unless otherwise indicated
Procedure: Assessment of MAGL inhibition utilizes human recombinant Monoacylglycerol Lipase and the fluorogenic substrate 7-hydroxycoumarinyl arachidonate (7-HCA, Biomol ST-502). […] The reaction was allowed to progress for 60 minutes, after which the plate was read at an Ex/Em of 340/465. […]
Test readout: MAGL kinact/KI

Examples with answers:
{"Compound": "O=C(O[C@H](CO)C(F)(F)F)N1CCC2(CC1)CC(c1cccc(Cl)c1)CO2 (mixture of isomers)", "Test readout": "MAGL kinact/KI", "Result": "23176 1/s per M"}
{"Compound": "CN([C@H]1COC2(CCN(C(=O)O[C@H](CO)C(F)(F)F)CC2)C1)S(=O)(=O)CC1CCC1", "Test readout": "MAGL kinact/KI", "Result": "4595 1/s per M"}
{"Compound": "Cc1ccc(S(=O)(=O)N2CCOC3(CCN(C(=O)O[C@H](CO)C(F)(F)F)CC3)C2)cc1F", "Test readout": "MAGL kinact/KI", "Result": "96515 1/s per M"}
{"Compound": "O=C(O[C@@H]([C@@H](O)C(F)(F)F)C(F)(F)F)N1C[C@@H]2[C@H](C1)[C@H]2c1ccn(-c2ccc(F)cc2)n1 (racemic)", "Test readout": "MAGL kinact/KI", "Result": "3736 1/s per M"}
{"Compound": "O=C(O[C@H](CO)C(F)(F)F)N1CCC2(CC1)CCN(S(=O)(=O)c1cccnc1)C2", "Test readout": "MAGL kinact/KI", "Result": "4723 1/s per M"}

Item CN(C1COC2(CCN(C(=O)O[C@H](CO)C(F)(F)F)CC2)C1)S(=O)(=O)c1ccc(F)cc1 (single isomer, unassigned) [Example 110] with human recombinant Monoacylglycerol Lipase (Homo sapiens) - MAGL kinact/KI?
8796 1/s per M

Item O=C(O[C@H](CO)C(F)(F)F)N1CCC2(CC1)CN(S(=O)(=O)NCc1ccccc1)CCO2 with human recombinant Monoacylglycerol Lipase (Homo sapiens) - MAGL kinact/KI?
30591 1/s per M

Item CN(C1COC2(CCN(C(=O)O[C@H](CO)C(F)(F)F)CC2)C1)S(=O)(=O)c1cccnc1 (mixture of isomers) with human recombinant Monoacylglycerol Lipase (Homo sapiens) - MAGL kinact/KI?
6263 1/s per M

Item O=C(O[C@H](CO)C(F)(F)F)N1CCC2(CC1)CC(N1CCc3ccccc3S1(=O)=O)CO2 (mixture of isomers) with human recombinant Monoacylglycerol Lipase (Homo sapiens) - MAGL kinact/KI?
4241 1/s per M

Item CN(C(=O)c1ccccc1)C1COC2(CCN(C(=O)O[C@H](CO)C(F)(F)F)CC2)C1 (single isomer, unassigned) [Example 99] with human recombinant Monoacylglycerol Lipase (Homo sapiens) - MAGL kinact/KI?
16883 1/s per M

Item CN(C(=O)c1ccccc1)C1COC2(CCN(C(=O)O[C@H](CO)C(F)(F)F)CC2)C1 (single isomer, unassigned) [Example 100] with human recombinant Monoacylglycerol Lipase (Homo sapiens) - MAGL kinact/KI?
5664 1/s per M

Item COc1ccc(-n2ccc([C@H]3[C@@H]4CN(C(=O)O[C@H](CO)C(F)(F)F)C[C@@H]43)n2)cn1 with human recombinant Monoacylglycerol Lipase (Homo sapiens) - MAGL kinact/KI?
4621 1/s per M

Item O=C(O[C@H](CO)C(F)(F)F)N1CCC2(CC1)CC(N1Cc3ccccc3S1(=O)=O)CO2 (mixture of isomers) with human recombinant Monoacylglycerol Lipase (Homo sapiens) - MAGL kinact/KI?
2454 1/s per M

Item CN(C(=O)C1CCC1)[C@H]1COC2(CCN(C(=O)O[C@H](CO)C(F)(F)F)CC2)C1 with human recombinant Monoacylglycerol Lipase (Homo sapiens) - MAGL kinact/KI?
3961 1/s per M

Item COP(=O)(OC)OC[C@@H](OC(=O)N1CCC2(CC1)CN(S(=O)(=O)c1ccc(F)cc1)CCO2)C(F)(F)F with human recombinant Monoacylglycerol Lipase (Homo sapiens) - MAGL kinact/KI?
132 1/s per M

Item O=C(O[C@H](CO)C(F)(F)F)N1CCC(c2ccn(-c3ccc(F)cc3)n2)CC1 with human recombinant Monoacylglycerol Lipase (Homo sapiens) - MAGL kinact/KI?
6109 1/s per M

Item O=C(O[C@H](CO)C(F)(F)F)N1CCC(Oc2ccc(C(F)(F)F)cn2)CC1 with human recombinant Monoacylglycerol Lipase (Homo sapiens) - MAGL kinact/KI?
6900 1/s per M

Item O=C(O[C@H](CO)C(F)(F)F)N1CCC2(CC1)CN(S(=O)(=O)c1ccc(F)cc1)CCO2 with human recombinant Monoacylglycerol Lipase (Homo sapiens) - MAGL kinact/KI?
13406 1/s per M

Item O=C(O[C@H](CO)C(F)(F)F)N1CCC(CNS(=O)(=O)c2ccc(F)cc2)CC1 with human recombinant Monoacylglycerol Lipase (Homo sapiens) - MAGL kinact/KI?
5046 1/s per M

Item CN(CC1CCN(C(=O)O[C@H](CO)C(F)(F)F)CC1)S(=O)(=O)c1ccc(F)cc1 with human recombinant Monoacylglycerol Lipase (Homo sapiens) - MAGL kinact/KI?
216 1/s per M

Item O=C(O[C@H](CO)C(F)(F)F)N1CCC2(CC1)CCN(S(=O)(=O)c1nccs1)C2 with human recombinant Monoacylglycerol Lipase (Homo sapiens) - MAGL kinact/KI?
9930 1/s per M

Item CN(C1COC2(CCN(C(=O)O[C@H](CO)C(F)(F)F)CC2)C1)S(=O)(=O)c1cncnc1 (mixture of isomers) with human recombinant Monoacylglycerol Lipase (Homo sapiens) - MAGL kinact/KI?
2917 1/s per M

Item O=C(O[C@H](CO)C(F)(F)F)N1C[C@@H]2[C@H](C1)[C@H]2c1ccn(Cc2ccccn2)n1 with human recombinant Monoacylglycerol Lipase (Homo sapiens) - MAGL kinact/KI?
1616 1/s per M

Item CN([C@@H]1COC2(CCN(C(=O)O[C@H](CO)C(F)(F)F)CC2)C1)S(=O)(=O)C1CC1 with human recombinant Monoacylglycerol Lipase (Homo sapiens) - MAGL kinact/KI?
3764 1/s per M

All values here come from patent US10723711B2.
